Biological target: BRG-1 (Homo sapiens, UniProt P51532)
Construct: made in house; host or cells: High Five insect cells
Sequence (P51532 whole entry): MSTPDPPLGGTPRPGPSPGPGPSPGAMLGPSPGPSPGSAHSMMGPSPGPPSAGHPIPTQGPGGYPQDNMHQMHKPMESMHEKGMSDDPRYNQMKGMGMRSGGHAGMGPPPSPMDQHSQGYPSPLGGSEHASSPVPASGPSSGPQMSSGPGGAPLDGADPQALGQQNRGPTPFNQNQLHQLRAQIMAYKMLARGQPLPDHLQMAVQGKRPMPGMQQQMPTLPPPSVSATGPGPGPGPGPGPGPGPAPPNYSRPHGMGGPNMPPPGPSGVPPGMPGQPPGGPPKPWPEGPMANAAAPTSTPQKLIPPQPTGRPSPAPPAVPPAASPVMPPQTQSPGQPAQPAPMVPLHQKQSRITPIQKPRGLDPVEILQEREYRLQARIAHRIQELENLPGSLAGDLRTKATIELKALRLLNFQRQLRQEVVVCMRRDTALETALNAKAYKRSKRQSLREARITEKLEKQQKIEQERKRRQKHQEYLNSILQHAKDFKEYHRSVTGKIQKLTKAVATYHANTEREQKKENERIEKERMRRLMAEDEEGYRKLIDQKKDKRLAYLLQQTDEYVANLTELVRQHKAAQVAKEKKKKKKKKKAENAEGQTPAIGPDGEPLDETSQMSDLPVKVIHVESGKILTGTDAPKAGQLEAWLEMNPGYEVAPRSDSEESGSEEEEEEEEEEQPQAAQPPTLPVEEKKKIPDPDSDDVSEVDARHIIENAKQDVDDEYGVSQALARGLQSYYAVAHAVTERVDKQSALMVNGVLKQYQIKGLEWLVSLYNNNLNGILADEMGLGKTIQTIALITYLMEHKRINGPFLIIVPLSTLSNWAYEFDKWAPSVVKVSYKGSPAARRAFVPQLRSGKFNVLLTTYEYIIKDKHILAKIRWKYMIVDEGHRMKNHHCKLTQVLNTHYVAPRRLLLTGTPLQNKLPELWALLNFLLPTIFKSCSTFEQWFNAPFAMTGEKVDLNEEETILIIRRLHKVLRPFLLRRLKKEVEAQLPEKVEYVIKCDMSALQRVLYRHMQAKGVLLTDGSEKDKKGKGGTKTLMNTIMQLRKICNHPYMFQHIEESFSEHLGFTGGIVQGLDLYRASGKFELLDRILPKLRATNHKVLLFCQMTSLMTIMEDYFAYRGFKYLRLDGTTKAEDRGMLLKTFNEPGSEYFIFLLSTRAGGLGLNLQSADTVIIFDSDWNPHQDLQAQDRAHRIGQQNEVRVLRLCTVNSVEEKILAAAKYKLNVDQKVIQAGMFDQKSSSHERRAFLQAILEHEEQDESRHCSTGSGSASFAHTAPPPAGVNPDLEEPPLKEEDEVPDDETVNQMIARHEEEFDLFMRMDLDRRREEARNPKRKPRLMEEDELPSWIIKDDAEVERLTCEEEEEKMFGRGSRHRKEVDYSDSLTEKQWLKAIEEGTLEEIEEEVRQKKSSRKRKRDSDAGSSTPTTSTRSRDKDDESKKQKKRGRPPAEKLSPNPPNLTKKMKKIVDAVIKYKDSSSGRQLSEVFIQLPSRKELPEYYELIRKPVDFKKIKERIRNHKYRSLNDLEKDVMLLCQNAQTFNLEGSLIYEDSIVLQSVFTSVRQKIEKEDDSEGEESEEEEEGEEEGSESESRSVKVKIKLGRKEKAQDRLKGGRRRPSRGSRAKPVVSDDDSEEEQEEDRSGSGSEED
Experiment: ATPase catalytic activity of BRG-1, ADP-Glo in vitro biochemical assay
Conditions: ATPase catalytic activity, 30 nM BRG-1, 400 μM ATP, read-out: BRG1 IP50 (μM)*
Recorded measurements of IC50, one per entry

INSERT INTO results (smiles_entry, property_label, value_observed) VALUES
  ('Cc1cc(-c2cccc(-c3csc(NC(=O)CNC(=O)c4ccn(C(C)(C)C)c4)n3)c2)on1', 'IC50', '> 0.01 µM'),
  ('COC1CN(c2cccc(-c3csc(NC(=O)CNC(=O)c4ccn(S(C)(=O)=O)c4)n3)c2)C1', 'IC50', '> 0.01 µM');

Enquiry: Name the recorded IC50 for `Cc1cc(-c2cccc(-c3csc(NC(=O)CNC(=O)c4ccn(S(C)(=O)=O)c4)n3)c2)on1` .
Return: > 0.01 µM

Enquiry: So what does the record say about IC50 for `C[C@@H]1CN(c2cccc(-c3csc(NC(=O)CNC(=O)c4ccn(S(=O)(=O)N(C)C)c4)n3)c2)C[C@H](C)O1` ?
Return: > 0.01 µM

Enquiry: If you can, please state the reported IC50 value of `CS(=O)(=O)n1ccc(C(=O)NCC(=O)Nc2nc(-c3cccc(N4CCCOCC4)c3)cs2)c1` .
Return: > 0.01 µM

Enquiry: Please report the recorded IC50 for `COC[C@H](NC(=O)c1ccn(C(C)(C)C)c1)C(=O)Nc1nc(-c2ccc3ccn(C)c(=O)c3c2)cs1` .
Return: > 0.01 µM

Enquiry: Can you share its IC50? I mean this molecule: `COc1ccncc1-c1cccc(-c2csc(NC(=O)CNC(=O)c3ccn(C4(C)COC4)c3)n2)n1`
Return: > 0.01 µM

###

Target: BRM (Homo sapiens, UniProt P51531)
Construct: made in house; host or cells: High Five insect cells
Sequence (P51531 whole entry): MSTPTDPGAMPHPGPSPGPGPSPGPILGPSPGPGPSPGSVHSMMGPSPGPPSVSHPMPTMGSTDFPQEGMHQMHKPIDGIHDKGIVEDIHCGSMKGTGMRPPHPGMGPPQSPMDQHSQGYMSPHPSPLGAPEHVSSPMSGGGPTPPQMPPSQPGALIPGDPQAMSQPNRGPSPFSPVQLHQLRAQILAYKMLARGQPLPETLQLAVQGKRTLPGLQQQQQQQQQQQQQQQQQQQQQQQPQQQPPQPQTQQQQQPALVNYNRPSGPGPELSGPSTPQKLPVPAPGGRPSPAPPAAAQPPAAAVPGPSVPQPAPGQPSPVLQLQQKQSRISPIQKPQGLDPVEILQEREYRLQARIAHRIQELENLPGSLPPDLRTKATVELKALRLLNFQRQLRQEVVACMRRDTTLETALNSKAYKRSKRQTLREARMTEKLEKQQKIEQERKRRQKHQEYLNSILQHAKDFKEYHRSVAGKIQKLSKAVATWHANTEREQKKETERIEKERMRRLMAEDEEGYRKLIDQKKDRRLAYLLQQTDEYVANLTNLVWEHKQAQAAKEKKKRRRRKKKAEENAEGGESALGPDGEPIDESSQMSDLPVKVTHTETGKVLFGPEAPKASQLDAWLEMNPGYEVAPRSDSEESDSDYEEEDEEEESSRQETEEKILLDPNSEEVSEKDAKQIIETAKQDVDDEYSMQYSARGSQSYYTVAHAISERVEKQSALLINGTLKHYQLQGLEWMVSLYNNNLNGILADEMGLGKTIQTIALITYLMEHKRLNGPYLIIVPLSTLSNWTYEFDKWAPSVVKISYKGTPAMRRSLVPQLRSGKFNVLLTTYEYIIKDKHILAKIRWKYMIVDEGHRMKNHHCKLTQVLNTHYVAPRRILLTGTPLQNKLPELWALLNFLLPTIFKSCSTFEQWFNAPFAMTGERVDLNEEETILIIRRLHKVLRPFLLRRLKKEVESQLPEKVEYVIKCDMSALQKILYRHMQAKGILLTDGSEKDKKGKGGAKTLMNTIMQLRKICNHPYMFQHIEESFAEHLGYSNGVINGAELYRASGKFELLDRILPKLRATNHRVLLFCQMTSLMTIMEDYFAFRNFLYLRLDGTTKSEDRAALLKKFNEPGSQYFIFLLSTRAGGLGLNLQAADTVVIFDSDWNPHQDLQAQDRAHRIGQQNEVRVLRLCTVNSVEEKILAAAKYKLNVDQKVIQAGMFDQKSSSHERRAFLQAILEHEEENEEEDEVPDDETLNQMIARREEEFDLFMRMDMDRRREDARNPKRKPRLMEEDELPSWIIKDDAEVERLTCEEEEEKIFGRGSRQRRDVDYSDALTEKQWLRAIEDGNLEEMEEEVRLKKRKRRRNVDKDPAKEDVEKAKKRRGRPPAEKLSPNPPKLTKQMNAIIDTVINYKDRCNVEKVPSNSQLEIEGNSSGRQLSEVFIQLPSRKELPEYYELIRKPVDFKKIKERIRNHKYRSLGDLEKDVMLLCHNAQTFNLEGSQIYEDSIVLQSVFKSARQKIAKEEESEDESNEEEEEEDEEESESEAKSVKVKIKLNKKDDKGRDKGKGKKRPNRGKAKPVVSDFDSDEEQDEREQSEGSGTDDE
Test: ATPase catalytic activity of BRM, ADP-Glo in vitro biochemical assay
Conditions: ATPase catalytic activity, 30 nM BRM, 400 μM ATP, read-out: BRM IP50
pIC50: −log10 of the molar value.
property.label: pIC50

Example cases with answers are listed next.
INSERT INTO assay_data (smiles_entry, value_observed) VALUES
  ('COC[C@H](NC(=O)c1ccn(S(C)(=O)=O)c1)C(=O)Nc1nc(-c2cc(Cl)c3c(c2)OCO3)cs1', '< 8.00'),
  ('CC(C)(F)COc1cccc(-c2csc(NC(=O)CNC(=O)c3ccn(C4(C)COC4)c3)n2)c1', '< 7.00'),
  ('COC[C@H](NC(=O)c1ccn(S(C)(=O)=O)c1)C(=O)Nc1nc(-c2cc(F)cc(OC)c2)cs1', '> 8.00');

Moving on to another molecule below.
Enquiry: Look up pIC50: `CC(C)(C)n1ccc(C(=O)NCC(=O)Nc2nc(-c3cccc(N4CCC5(CCOCC5)C4)n3)cs2)c1`
Return: < 7.00

###

Biological target: BRG-1 (Homo sapiens, UniProt P51532)
Construct: made in house; host or cells: High Five insect cells
Assay: ATPase catalytic activity of BRG-1, ADP-Glo in vitro biochemical assay
Settings: ATPase catalytic activity, 30 nM BRG-1, 400 μM ATP, read-out: BRG1 IP50 (μM)*
property.label: IC50

INSERT INTO results (smiles_entry, value_observed) VALUES
  ('C[C@@H]1C[C@@H](COc2cccc(-c3csc(NC(=O)CNC(=O)c4ccn(S(C)(=O)=O)c4)n3)c2)C[C@H](C)O1', '> 0.01 µM'),
  ('CS(=O)(=O)n1ccc(C(=O)NCC(=O)Nc2nc(-c3cccc(N4CC5(COC5)C4)c3)cs2)c1', '< 0.01 µM'),
  ('COC[C@H](NC(=O)c1ccn(S(C)(=O)=O)c1)C(=O)Nc1nc(-c2cccc(-c3cc(C)nc(C)n3)c2)cs1', '< 0.01 µM');

# input for lookup
Enquiry: Consider the molecule `CS(=O)(=O)n1ccc(C(=O)NCC(=O)Nc2nc(-c3cccc(N4CC[C@@H](O)[C@@H](F)C4)c3)cs2)c1` and give its measured IC50.
Return: < 0.01 µM

###

Target: BRM (Homo sapiens)
Construct: made in house; host or cells: High Five insect cells
Assay: ATPase catalytic activity of BRM, ADP-Glo in vitro biochemical assay
Conditions: ATPase catalytic activity, 30 nM BRM, 400 μM ATP, read-out: BRM IP50 (μM)*
Entries and their IC50

INSERT INTO measurements (compound, value_observed) VALUES
  ('CS(=O)(=O)n1ccc(C(=O)NCC(=O)Nc2nc(-c3cccc(N4CC(n5ccnc5)C4)c3)cs2)c1', '> 0.01 µM'),
  ('CS(=O)(=O)n1ccc(C(=O)NCC(=O)Nc2nc(-c3cccc(N4CCC(CO)(C(F)(F)F)C4)c3)cs2)c1 (stereo not shown)', '> 0.1 µM'),
  ('CO[C@]1(C)CCCN(c2cccc(-c3csc(NC(=O)CNC(=O)c4ccn(S(C)(=O)=O)c4)n3)c2)C1', '> 0.01 µM'),
  ('CC(C)Oc1cccc(-c2csc(NC(=O)CNC(=O)c3ccn(S(C)(=O)=O)c3)n2)c1', '> 0.01 µM'),
  ('O=C(CNC(=O)c1ccn(C2CCNCC2)c1)Nc1nc(-c2cccc(-c3ccncc3)c2)cs1', '> 1 µM');

Enquiry: Which IC50 is reported for this compound? `CS(=O)(=O)n1ccc(C(=O)NCC(=O)Nc2nc(-c3cccc(N4CCC4)c3)cs2)c1`
Return: < 0.01 µM

Enquiry: GET /values?readout=IC50&item= `CC(C)(C)n1ccc(C(=O)NCC(=O)Nc2nc(-c3cccc(N4CCC(O)CC4)n3)cs2)c1`
Return: > 0.01 µM

###

Biological target: BRM (Homo sapiens, UniProt P51531)
Construct: made in house; host or cells: High Five insect cells
Experiment: ATPase catalytic activity of BRM, ADP-Glo in vitro biochemical assay
Conditions: ATPase catalytic activity, 30 nM BRM, 400 μM ATP, read-out: BRM IP50
pIC50: −log10 of the molar value.
property.label: pIC50

These recorded examples may help you get a feel for the data.
INSERT INTO measurements (compound, property_label, value_observed) VALUES
  ('C[C@H](NC(=O)c1ccn(C(C)(C)C)c1)C(=O)Nc1nc(-c2cccc(-c3cnn(C)n3)n2)cs1', 'pIC50', '< 7.00'),
  ('CC(C)(C)n1ccc(C(=O)NCC(=O)Nc2nc(-c3cccc(N4CCCC(N5CCCC5)C4)n3)cs2)c1 (stereo not shown)', 'pIC50', '< 8.00'),
  ('CS(=O)(=O)n1ccc(C(=O)NCC(=O)Nc2nc(-c3cccc([C@H]4CC4(F)F)c3)cs2)c1', 'pIC50', '> 8.00');

Kindly review the next compound as well.
Enquiry: Returns the measured pIC50 for the input compound. Input: `COc1cccc(-c2csc(NC(=O)CNC(=O)c3ccn(S(C)(=O)=O)c3)n2)c1F`
Return: < 8.00

###

Biological target: BRG-1 (Homo sapiens)
Construct: made in house; host or cells: High Five insect cells
Assay: ATPase catalytic activity of BRG-1, ADP-Glo in vitro biochemical assay
Conditions: ATPase catalytic activity, 30 nM BRG-1, 400 μM ATP, read-out: BRG1 IP50 (μM)*
property.label: IC50

Known results for compounds:
INSERT INTO measurements (smiles_entry, assayed_system, value_observed) VALUES
  ('CS(=O)(=O)n1cnc(C(=O)NCC(=O)Nc2nc(-c3cccc(-c4ccncc4)c3)cs2)c1', 'BRG-1 (Homo sapiens)', '< 0.01 µM'),
  ('CC(C)(C)n1ccc(C(=O)NCC(=O)Nc2nc(-c3cccc(N4CC(N5CCOCC5)C4)n3)cs2)c1', 'BRG-1 (Homo sapiens)', '> 0.1 µM'),
  ('CC1(n2ccc(C(=O)NCC(=O)Nc3nc(-c4cccc(N5CCC5)c4)cs3)c2)COC1', 'BRG-1 (Homo sapiens)', '> 0.01 µM'),
  ('COC[C@H](NC(=O)c1ccn(S(C)(=O)=O)c1)C(=O)Nc1nc(-c2cccc(N3C[C@@H](C)O[C@@H](C)C3)c2F)cs1', 'BRG-1 (Homo sapiens)', '> 0.01 µM'),
  ('CS(=O)(=O)n1ccc(C(=O)NCC(=O)Nc2nc(-c3cccc(N4CC[C@H](O)[C@H](F)C4)c3)cs2)c1', 'BRG-1 (Homo sapiens)', '> 0.01 µM');

Enquiry: Value lookup for IC50; key = `CNc1cccc(-c2csc(NC(=O)CNC(=O)c3ccn(S(C)(=O)=O)c3)n2)c1`
Return: > 0.01 µM

Enquiry: What does the record list as IC50 for `CC(C)(C)C[C@H](NC(=O)c1ccn(S(C)(=O)=O)c1)C(=O)Nc1nc(-c2cccc(-c3ccncc3)c2)cs1` ?
Return: > 0.01 µM
